- Test system: UACC-257
- protocol: NCI tumour cell line growth inhibition, 48 h
Calls of active or inactive are those of the source. Rule as the data show it: active = GI50 up to about 1.1 µM and inactive = higher.
Just give me one of these, please: active, inactive

Answered examples (5):
> print(dat)
                                   molecule  group.label
1          OCc1cccc(Nc2nc(O)c3[nH]cnc3n2)c1     inactive
2  O=c1c2ccccc2nc2n1CCc1c-2[nH]c2cc3c(cc12)OCO3     inactive
3  c1ccc2c(c1)CCc1c-2n(CCN2CCOCC2)c2ccccc12     inactive
4  CC(=O)c1cccc(Nc2nc3ccc(Cl)cc3c3[nH]c4ccccc4c23)c1     inactive
5  COc1ccc2c[n+](C)c3c4cc(OC)c(OC)cc4ccc3c2c1     inactive

Enquiry: Entry `COc1cc2c(/C=C3/C(=O)Nc4ccccc43)c(Cl)n(Cc3ccc(Cl)cc3)c2cc1C` : call = ?
Return: active

Enquiry: Entry CC(C)N1CCN(c2ccc(OCC3COC(Cn4cncn4)(c4ccc(Cl)cc4Cl)O3)cc2)CC1 (stereo not drawn) : call = ?
Return: inactive

Enquiry: Entry COc1ccc2c(c1)N(CCC1CCCCN1C)c1ccccc1S2 (stereo not drawn) : call = ?
Return: inactive

Provenance of the data: ChEMBL document CHEMBL1201862
